Taken from PubChem BioAssay (NCI).

Tested on: MALME-3M melanoma
method_description: NCI tumour cell line growth inhibition, 48 h
test_readout: TGI

>>> reported("CC(=O)[C@@H](C)C(=O)N1C(=O)OC[C@@]12[C@@H]1CC[C@@H](C1)C2(C)C")
"> 100 µM"
>>> reported("CSc1cc(Cl)c(C)cc1S(=O)(=O)NC(=O)NNc1cccc(C(F)(F)F)n1")
"> 100 µM"
>>> reported("COc1c2c(cc3c1OCO3)[C@]13C=C[C@H](OC)C[C@H]1N(C2)CC3O (some centres undefined)")
"> 100 µM"

Now examine the next entry.
Exercise: Need TGI of COc1ccc(-c2[nH]c3ccc(OC)cc3c2/C=C(\C#N)S(=O)(=O)c2ccccc2)cc1 , thanks.
Key: > 82.2 µM

----------
Test system: SK-MEL-5 melanoma
method_description: NCI tumour cell line growth inhibition, 48 h
Kindly state TGI for each of the entries shown.

// solved cases for TGI follow
>>> reported("COc1ccc2[nH]c3c4[nH]c5ccc(OC)cc5c4c4c(c3c2c1)C(=O)NC4=O")
"> 25 µM"
>>> reported("O=C(O)CNS(=O)(=O)c1ccc(NC(=O)c2ccc([N+](=O)[O-])cc2)cc1")
"> 100 µM"
>>> reported("Nc1ccc(Cc2c(N)[nH]c(=O)[nH]c2=O)cc1")
"> 100 µM"

Now examine the next entry.
Exercise: Need TGI of O=C(/C=C/c1ccc(Cl)c(Cl)c1)c1ccc2ccccc2c1 , thanks.
Key: > 100 µM

----------
Test system: COLO 205 colon
method_description: NCI tumour cell line growth inhibition, 48 h
test_readout: TGI

>>> reported("COc1cccc2c1C(=O)c1c(O)c3c(c(O)c1C2=O)CC(O)(C(=O)CO)CC3OC1CC(N2CCOCC2C#N)C(O)C(C)O1 (stereo not given)")
"< 0.0001 µM"
>>> reported("CN(Cc1ccccc1)C(=O)c1ccccc1C(=O)O")
"> 100 µM"
>>> reported("COCCCNc1nc(N)c(C#N)c(C#N)c1C#N")
"> 10 µM"
>>> reported("CC(=O)Oc1ccc2cc(-c3ccccc3OC(C)=O)c(=O)oc2c1")
"> 100 µM"
>>> reported("O=C(N/N=C/c1cc(Br)ccc1O)N/N=C/c1cc(Br)ccc1O")
"> 100 µM"
>>> reported("CC1=CCC(O)C=CC(C)C(O)C(C)C=C(C)C(=O)c2c(O)c(C)cc3c2C(=O)C(N)=C(NC(=O)/C=C\\C=C/C=CC(C)C(O)CC1=O)C3=O (stereo not given)")
"> 100 µM"
>>> reported("CC1=C(/C=C/Cl)CC(Cl)C(C)(Cl)C1 (stereo not given)")
"> 100 µM"
>>> reported("Cn1cc(C2(C)CC(C)(C)c3c2n(C)c2ccccc32)c2ccccc21 (stereo not given)")
"> 100 µM"
>>> reported("c1cnn(CN(Cn2cccn2)Cn2cccn2)c1")
"> 100 µM"
>>> reported("CCOC(=O)C1C(=O)CC1(C)C (stereo not given)")
"> 10 µM"

List TGI for every entry below, keeping the order given.
1. CC(C)=C[C@H]1CCC2(OCCO2)[C@]1(C)CO
2. OCC1OC(n2cnc3c2NC=NC[C@H]3O)C(Cl)C1O (stereo not given in full)
3. CC1(C)C[C@@H]2C1CCC1(C)CC2(O)CC[C@H]1O (stereo not given in full)
4. CNC(=S)/N=C(\N)N(C)C

Key:
1. > 100 µM
2. > 100 µM
3. > 100 µM
4. > 100 µM

Exercise: Need TGI of COc1ccc2c3c([nH]c2c1[N+](=O)[O-])C(C)N(C)CC3 (stereo not given) , thanks.
Key: > 100 µM

----------
Test system: K-562 leukemia
method_description: NCI tumour cell line growth inhibition, 48 h
test_readout: TGI

// solved cases for TGI follow
>>> reported("CC1=[N+]([O-])c2ccccc2C(=O)C1=O")
"> 100 µM"
>>> reported("O=C(Nc1n[nH]c2cc(-c3ccccc3)ccc12)C1CC1")
"> 25 µM"

Exercise: Need TGI of O=C(c1cccc2ccccc12)N1CCC(C2CCN(C(=O)c3cccc4ccccc34)CC2)CC1 , thanks.
Key: > 100 µM

----------
System: PC-3 prostate
method_description: NCI tumour cell line growth inhibition, 48 h; in the data active = GI50 below about 0.43 µM; inactive = the rest
// classify into y (active), n (inactive)

Example entries and their recorded answers appear below.
>>> label_class("COc1ccc(C[N+](C)(C)N)cc1OC")
"n"
>>> label_class("Cc1ccc(NC(=O)c2cccc(C(C)(C)C#N)c2)cc1Nc1ccc2ncn(C)c(=O)c2c1")
"n"
>>> label_class("c1ccc(Sc2ccc(Cc3nc4cc5ccccc5cc4[nH]3)cc2)cc1")
"n"
>>> label_class("CN1CCN(CCCNc2nc3ccc(Oc4ccc(NC(=O)Nc5cc(C(F)(F)F)ccc5F)cc4)cc3[nH]2)CC1")
"n"
>>> label_class("COc1ccc(C(=O)c2cc(C)c(OC)c(C)c2)cc1OC(=O)CCl")
"y"
>>> label_class("Cc1cc2ncnn2cc1Nc1ncc2c(n1)n(C1CCOCC1)c(=O)n2C")
"n"

Exercise: How was O=C1/C(=C(/c2ccccc2)N2CCOCC2)Cc2ccccc21 classified in this test?
Key: n

----------
Kindly state TGI for each of the entries shown.
Test system: DU-145 prostate
method_description: NCI tumour cell line growth inhibition, 48 h

// solved cases for TGI follow
>>> reported("O=C(c1cccs1)N1CCc2ccccc2C1")
"> 100 µM"
>>> reported("CCOC(=O)c1c(N2CCOCC2)[nH]c(=O)c(C(c2c(Cl)cccc2Cl)c2c(O)c(C(=O)OCC)c(N3CCOCC3)[nH]c2=O)c1O")
"24.6 µM"
>>> reported("C=CCCC1(CC(Sc2ccccc2)P(=O)(c2ccccc2)c2ccccc2)OCCO1 (centres undefined)")
"> 10 µM"

Now examine the next entry.
Exercise: Need TGI of CC(=O)[C@@H](C)C(=O)N1C(=O)OC[C@@]12[C@@H]1CC[C@@H](C1)C2(C)C , thanks.
Key: > 100 µM

----------
Tested on: MDA-MB-435
// classify into 1 = active, 0 = inactive

Example entries and their recorded answers appear below.
>>> label_class("O=C1/C(=C(/c2ccccc2)N2CCOCC2)Cc2ccccc21")
0
>>> label_class("O=C(Nc1n[nH]c2cc(-c3ccccc3)ccc12)C1CC1")
0
>>> label_class("Cc1ccc(NC(=O)c2cccc(C(C)(C)C#N)c2)cc1Nc1ccc2ncn(C)c(=O)c2c1")
1

Exercise: How was COc1cc2c3c(n(CCCN)c(=O)c2cc1OC)-c1ccc(C#N)cc1C3=O classified in this test?
Key: 0

Exercise: Next compound up: CC12OC(C(=O)C13CC3)C1C(=O)c3ccc4c(ccc5ccccc54)c3C(=O)C12 (configuration not stated)
Key: 0

Exercise: Next compound up: NS(=O)(=O)c1ccc(-c2ccc3c(NC(=O)C4CC4)n[nH]c3c2)cc1
Key: 0

Exercise: Next compound up: O=c1cc(NCC(O)CN2CCCC2)n(Cc2ccccc2)c(=O)n1Cc1ccccc1 (configuration not stated)
Key: 0

----------
Tested on: CAKI-1 renal
method_description: NCI tumour cell line growth inhibition, 48 h
test_readout: GI50

// solved cases for GI50 follow
>>> reported("O=C(Nc1n[nH]c2cc(-c3ccccc3)ccc12)C1CC1")
"9.36 µM"
>>> reported("Nc1ccccc1C#C/C=C\\C#Cc1ccccc1N")
"6.86 µM"
>>> reported("O=C1/C(=C(/c2ccccc2)N2CCOCC2)Cc2ccccc21")
"0.186 µM"
>>> reported("N#Cc1cc(-c2cc3ccccc3o2)oc1N")
"1.65 µM"
>>> reported("CCCCC(CC)COC(=O)C[N+](C)(C)CCOC(c1ccccc1)c1ccccc1 (stereo unspecified)")
"16.8 µM"

Now examine the next entry.
Exercise: Need GI50 of COc1ccc(C(=O)c2cc(C)c(OC)c(C)c2)c(OC)c1O , thanks.
Key: 0.185 µM

----------
System: KM20L2 colon
method_description: NCI tumour cell line growth inhibition, 48 h
test_readout: TGI

// solved cases for TGI follow
>>> reported("Cn1cc(C2(C)CC(C)(C)c3c2n(C)c2ccccc32)c2ccccc21 (stereo not drawn)")
"> 100 µM"
>>> reported("Cc1cc(N(CCC#N)CCC#N)ccc1/C=C(\\NC(=O)/C=C/c1ccccc1)C(N)=O")
"> 100 µM"

Now examine the next entry.
Exercise: Need TGI of COC(=O)C(CC(=O)Nc1ccc(C)cc1)C(=O)C(=O)Nc1c(C(C)C)cccc1C(C)C (stereo not drawn) , thanks.
Key: > 100 µM

----------
Tested on: UACC-257 melanoma
method_description: NCI tumour cell line growth inhibition, 48 h
Kindly state TGI for each of the entries shown.

// solved cases for TGI follow
>>> reported("O=C(Nc1cc(Cl)c(Cl)cc1Cl)C(=O)C1C(=O)NC(=S)NC1=O")
"> 100 µM"
>>> reported("c1ccc(C2N3CCCCC3[C@@H]3c4[nH]c5ccccc5c4CCN23)nc1 (stereo not given in full)")
"> 100 µM"
>>> reported("CCCCCCCCCCCCCCCC(=O)OCC(C[As](=O)(O)O)OC(=O)CCCCCCCCCCCCCCC (stereo not given)")
"> 100 µM"
>>> reported("O=C(Nc1n[nH]c2cc(-c3ccccc3)ccc12)C1CC1")
"> 25 µM"

Now examine the next entry.
Exercise: Need TGI of Cc1nnc(NS(=O)(=O)c2ccc(N=Nc3cc(N=Nc4ccc(S(=O)(=O)Nc5nnc(C)s5)cc4)c4c(NC(=O)C(Cl)Cl)cccc4c3OC(=O)C(Cl)Cl)cc2)s1 (tested in a mixture with another compound) , thanks.
Key: > 100 µM
